Test: Pharmacokinetics of PRI-002 in plasma
Settings: human, plasma, po, 300 mg, PRI-002 plasma level, Mean, Day 28, 0.5 h; n=8; 300 mg q.d. oral; MCI/mild AD patients
Square brackets hold non-standard residues; d marks the D form. Peptide text beside a SMILES is read from it.
property: level at 0.5 h (ng/mL)
Answers are plain numbers, in ng/mL.

Entry under review: CC(C)C[C@@H](NC(=O)[C@H](NC(=O)[C@H]1CCCN1)[C@H](C)O)C(=O)N[C@H](Cc1c[nH]cn1)C(=O)N[C@@H](C(=O)N[C@H](Cc1c[nH]cn1)C(=O)N[C@H](CC(N)=O)C(=O)N[C@H](CCCNC(=N)N)C(=O)N[C@H](CCCNC(=N)N)C(=O)N[C@H](CCCNC(=N)N)C(=O)N[C@H](CCCNC(=N)N)C(=O)N[C@H](CCCNC(=N)N)C(N)=O)[C@H](C)O [PRI-002] (H-[dP][dT][dL][dH][dT][dH][dN][dR][dR][dR][dR][dR]-NH2; N-terminus and C-terminus assumed) . Reported level at 0.5 h?
12.5

###

Experiment: Pharmacokinetics of PRI-002 in plasma
Details: human, plasma, po, 300 mg, PRI-002 plasma level, Mean, Day 28, 4 h; n=8; 300 mg q.d. oral; MCI/mild AD patients
Square brackets hold non-standard residues; d marks the D form. Peptide text beside a SMILES is read from it.
property: level at 4 h (ng/mL)
One number for each entry, in ng/mL.

Can you share its level at 4 h? I mean this compound: CC(C)C[C@@H](NC(=O)[C@H](NC(=O)[C@H]1CCCN1)[C@H](C)O)C(=O)N[C@H](Cc1c[nH]cn1)C(=O)N[C@@H](C(=O)N[C@H](Cc1c[nH]cn1)C(=O)N[C@H](CC(N)=O)C(=O)N[C@H](CCCNC(=N)N)C(=O)N[C@H](CCCNC(=N)N)C(=O)N[C@H](CCCNC(=N)N)C(=O)N[C@H](CCCNC(=N)N)C(=O)N[C@H](CCCNC(=N)N)C(N)=O)[C@H](C)O [PRI-002] (H-[dP][dT][dL][dH][dT][dH][dN][dR][dR][dR][dR][dR]-NH2; N-terminus and C-terminus assumed)
4.6

###

Experiment: Pharmacokinetics of PRI-002 in plasma
Conditions: human, plasma, po, 300 mg, AUC 0-4 hours, plasma, Day 1 (n=9), Mean ± SD; 300 mg q.d. oral; MCI/mild AD patients
Square brackets hold non-standard residues; d marks the D form. Peptide text beside a SMILES is read from it.
property: AUC(0-t) (ng·h/mL)
Numbers only, in ng·h/mL.

Need AUC(0-t) of CC(C)C[C@@H](NC(=O)[C@H](NC(=O)[C@H]1CCCN1)[C@H](C)O)C(=O)N[C@H](Cc1c[nH]cn1)C(=O)N[C@@H](C(=O)N[C@H](Cc1c[nH]cn1)C(=O)N[C@H](CC(N)=O)C(=O)N[C@H](CCCNC(=N)N)C(=O)N[C@H](CCCNC(=N)N)C(=O)N[C@H](CCCNC(=N)N)C(=O)N[C@H](CCCNC(=N)N)C(=O)N[C@H](CCCNC(=N)N)C(N)=O)[C@H](C)O [PRI-002] (H-[dP][dT][dL][dH][dT][dH][dN][dR][dR][dR][dR][dR]-NH2; N-terminus and C-terminus assumed) , thanks.
9.98

###

Experiment: Pharmacokinetics of PRI-002 in plasma
Details: human, plasma, po, 300 mg, Cmax, plasma, Day 1 (n=9), Median; 300 mg q.d. oral; MCI/mild AD patients
Square brackets hold non-standard residues; d marks the D form. Peptide text beside a SMILES is read from it.
property: Cmax (ng/mL)
Answers are plain numbers, in ng/mL.

Can you look up the measured Cmax of CC(C)C[C@@H](NC(=O)[C@H](NC(=O)[C@H]1CCCN1)[C@H](C)O)C(=O)N[C@H](Cc1c[nH]cn1)C(=O)N[C@@H](C(=O)N[C@H](Cc1c[nH]cn1)C(=O)N[C@H](CC(N)=O)C(=O)N[C@H](CCCNC(=N)N)C(=O)N[C@H](CCCNC(=N)N)C(=O)N[C@H](CCCNC(=N)N)C(=O)N[C@H](CCCNC(=N)N)C(=O)N[C@H](CCCNC(=N)N)C(N)=O)[C@H](C)O [PRI-002] (H-[dP][dT][dL][dH][dT][dH][dN][dR][dR][dR][dR][dR]-NH2; N-terminus and C-terminus assumed) for me?
3.03

###

Assay: Pharmacokinetics of PRI-002 in plasma
Settings: human, plasma, po, 300 mg, PRI-002 plasma level, Mean, Day 1, 2 h; n=9; 300 mg q.d. oral; MCI/mild AD patients
Square brackets hold non-standard residues; d marks the D form. Peptide text beside a SMILES is read from it.
property: level at 2 h (ng/mL)
Answers are plain numbers, in ng/mL.

Query (compound): CC(C)C[C@@H](NC(=O)[C@H](NC(=O)[C@H]1CCCN1)[C@H](C)O)C(=O)N[C@H](Cc1c[nH]cn1)C(=O)N[C@@H](C(=O)N[C@H](Cc1c[nH]cn1)C(=O)N[C@H](CC(N)=O)C(=O)N[C@H](CCCNC(=N)N)C(=O)N[C@H](CCCNC(=N)N)C(=O)N[C@H](CCCNC(=N)N)C(=O)N[C@H](CCCNC(=N)N)C(=O)N[C@H](CCCNC(=N)N)C(N)=O)[C@H](C)O [PRI-002] (H-[dP][dT][dL][dH][dT][dH][dN][dR][dR][dR][dR][dR]-NH2; N-terminus and C-terminus assumed) ; field requested: level at 2 h
2.6

###

Assay: Pharmacokinetics of PRI-002 in plasma
Conditions: human, plasma, po, 300 mg, Cmax, plasma, Day 1 (n=9), Mean ± SD; 300 mg q.d. oral; MCI/mild AD patients
Square brackets hold non-standard residues; d marks the D form. Peptide text beside a SMILES is read from it.
property: Cmax (ng/mL)
Answers are plain numbers, in ng/mL.

Need Cmax, item CC(C)C[C@@H](NC(=O)[C@H](NC(=O)[C@H]1CCCN1)[C@H](C)O)C(=O)N[C@H](Cc1c[nH]cn1)C(=O)N[C@@H](C(=O)N[C@H](Cc1c[nH]cn1)C(=O)N[C@H](CC(N)=O)C(=O)N[C@H](CCCNC(=N)N)C(=O)N[C@H](CCCNC(=N)N)C(=O)N[C@H](CCCNC(=N)N)C(=O)N[C@H](CCCNC(=N)N)C(=O)N[C@H](CCCNC(=N)N)C(N)=O)[C@H](C)O [PRI-002] (H-[dP][dT][dL][dH][dT][dH][dN][dR][dR][dR][dR][dR]-NH2; N-terminus and C-terminus assumed)
4.46

###

Test: Pharmacokinetics of PRI-002 in plasma
Conditions: human, plasma, po, 300 mg, PRI-002 plasma level, Mean, Day 28, 0 h; n=8; 300 mg q.d. oral; MCI/mild AD patients
Square brackets hold non-standard residues; d marks the D form. Peptide text beside a SMILES is read from it.
property: level at 0 h
Remember to follow the number with its unit.

Requested field: level at 0 h. Item: CC(C)C[C@@H](NC(=O)[C@H](NC(=O)[C@H]1CCCN1)[C@H](C)O)C(=O)N[C@H](Cc1c[nH]cn1)C(=O)N[C@@H](C(=O)N[C@H](Cc1c[nH]cn1)C(=O)N[C@H](CC(N)=O)C(=O)N[C@H](CCCNC(=N)N)C(=O)N[C@H](CCCNC(=N)N)C(=O)N[C@H](CCCNC(=N)N)C(=O)N[C@H](CCCNC(=N)N)C(=O)N[C@H](CCCNC(=N)N)C(N)=O)[C@H](C)O [PRI-002] (H-[dP][dT][dL][dH][dT][dH][dN][dR][dR][dR][dR][dR]-NH2; N-terminus and C-terminus assumed)
2 ng/mL

###

Assay: Pharmacokinetics of PRI-002 in plasma
Settings: human, plasma, po, 300 mg, PRI-002 plasma level, Mean, Day 28, 2 h; n=8; 300 mg q.d. oral; MCI/mild AD patients
Square brackets hold non-standard residues; d marks the D form. Peptide text beside a SMILES is read from it.
property: level at 2 h (ng/mL)
One number for each entry, in ng/mL.

What does the record list as level at 2 h for CC(C)C[C@@H](NC(=O)[C@H](NC(=O)[C@H]1CCCN1)[C@H](C)O)C(=O)N[C@H](Cc1c[nH]cn1)C(=O)N[C@@H](C(=O)N[C@H](Cc1c[nH]cn1)C(=O)N[C@H](CC(N)=O)C(=O)N[C@H](CCCNC(=N)N)C(=O)N[C@H](CCCNC(=N)N)C(=O)N[C@H](CCCNC(=N)N)C(=O)N[C@H](CCCNC(=N)N)C(=O)N[C@H](CCCNC(=N)N)C(N)=O)[C@H](C)O [PRI-002] (H-[dP][dT][dL][dH][dT][dH][dN][dR][dR][dR][dR][dR]-NH2; N-terminus and C-terminus assumed) ?
6.1
